biological target: Dual specificity protein kinase CLK4 (Homo sapiens) (UniProt Q9HAZ1); test: qHTS Assay for Inhibitors of CDC-like Kinase 4 (ADP-FP Assay) (AID 1795); settings: Transcreener ADP fluorescence polarization; series mostly up to 50 µM; also: nearly all actives have a fitted effect of over 60% in size
Sequence (Q9HAZ1 whole entry, looked up): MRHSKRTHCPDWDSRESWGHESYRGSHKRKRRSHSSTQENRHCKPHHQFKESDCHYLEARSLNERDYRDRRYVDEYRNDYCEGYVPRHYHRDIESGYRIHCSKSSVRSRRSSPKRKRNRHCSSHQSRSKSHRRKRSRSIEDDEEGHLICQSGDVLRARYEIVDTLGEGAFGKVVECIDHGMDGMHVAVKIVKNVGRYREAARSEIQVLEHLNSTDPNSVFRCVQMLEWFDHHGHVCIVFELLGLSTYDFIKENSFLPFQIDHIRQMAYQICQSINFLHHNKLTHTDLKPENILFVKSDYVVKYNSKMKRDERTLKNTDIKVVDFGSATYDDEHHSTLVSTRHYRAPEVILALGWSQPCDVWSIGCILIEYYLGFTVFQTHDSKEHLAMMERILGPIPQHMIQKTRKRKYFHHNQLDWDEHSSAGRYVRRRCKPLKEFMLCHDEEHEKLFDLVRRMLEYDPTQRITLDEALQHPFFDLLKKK
Inconclusive results are not listed. Active and inactive are the calls of the source. Calls follow the shape of the dose curve; as a rule, active = well fitted inhibition curve with a large enough effect; inconclusive = small, poorly fitted or top-dose-only effect; inactive = flat fitted curve, though single readings scatter.
Respond using exactly one of the listed classes: active, inactive

# count of solved cases: 5
# structureNotation, category
rows = [
    ("COc1ccc(-c2nc3cnc(N4CCNCC4)nc3n(-c3ccc(OC)cc3)c2=O)cc1", "inactive"),
    ("Cc1nc2cncnc2n(C2CC2)c1=O", "inactive"),
    ("N#CCCn1c(=O)c(-c2ccc(F)cc2)nc2cnc(N3CCOCC3)nc21", "inactive"),
    ("O=c1c(-c2cccs2)nc2cnc(N3CCNCC3)nc2n1CCc1ccccc1", "inactive"),
    ("CN(C)c1ncc2nc(-c3cccc(C#N)c3)c(=O)n(CCC#N)c2n1", "inactive"),
]

Called result for CC(=O)NCCNc1cc(-c2ccccc2C(F)(F)F)ncn1
inactive

Called result for COc1cccc(-c2cncnc2NC2CCNCC2)c1
inactive

Called result for CN(C)C(=O)c1ccc(-c2cncnc2N2CCNCC2)cc1
inactive

Called result for CCNc1ncc2nc(C)c(=O)n(CCC#N)c2n1
inactive

Called result for N#Cc1cccc(-c2nc3cnc(N4CCOCC4)nc3n(C3CC3)c2=O)c1
inactive

Called result for Cc1noc(C)c1-c1ccc2ncnc(NCc3cccnc3)c2c1
active

Called result for O=c1c(-c2ccc(F)c(F)c2)nc2cncnc2n1C1CC1
inactive
